# Target Or Test System: T1, CFP-ARC2-3 (TNKS1) (human, mCerulean fusion omitted; conventional ARC limits)
# T1 chain: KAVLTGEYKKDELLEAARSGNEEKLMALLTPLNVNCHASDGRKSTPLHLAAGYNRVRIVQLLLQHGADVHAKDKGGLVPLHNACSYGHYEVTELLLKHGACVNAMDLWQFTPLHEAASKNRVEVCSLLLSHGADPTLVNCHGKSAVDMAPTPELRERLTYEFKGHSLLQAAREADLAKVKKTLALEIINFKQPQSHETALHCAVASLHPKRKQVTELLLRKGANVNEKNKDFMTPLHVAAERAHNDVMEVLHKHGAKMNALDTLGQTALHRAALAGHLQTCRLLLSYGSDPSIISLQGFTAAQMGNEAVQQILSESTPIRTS
# Test: FRET or BRET; titration for Kd after Song et al.: CFP-fusion kept constant (50 nM to 1.1 µM), YFP-fusion 0-4,000 nM; FRET emission on excitation at 430 nm; assay buffer 10 mM Bis-Tris-Propane pH 7.0, 3% PEG20,000, 0.01% Triton-X100, 0.5 mM TCEP; 384-well plates, 4 replicates; the paper calls the constants an estimation
# Measurement Context: both partners purified
Readout Kind: pKd
Numbers only, as −log10 of the molar value.

**Query** Given REAGDGEE (also called TBM (REAGDGEE); YFP-fused TBM; source: E. coli BL21(DE3), purified (IMAC); not shown: mCitrine (YFP), N-terminal, kept) [YFP-TBM] , state its recorded pKd.
**Result** 7.92
